assay info: NCI Yeast Anticancer Drug Screen. Data for the cln2 rad14 strain (AID 165);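 further: 0% = growth equal to vehicle treated cultures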
condition description: S. cerevisiae cln2 rad14 strain, at 50.0 µM, hits give high values
Compounds without any hit were thinned out: in the full panel of roughly 79,000, 15% have a hit.
Decision: growth inhibition compared against 10%; not below it gives 1, below it gives 0.

>>> classification("CCC(C)(C)c1ccc(OCCCCNC(=O)c2ccc3ccccc3c2O)c(C(C)(C)CC)c1")
0
>>> classification("Cc1cc(Cl)ccc1N1C(=O)C(=O)C(c2nc3ccccc3s2)C(=O)C1=O")
0
>>> classification("CC(C)CCCC(C)C1CCC2C3CCC4CC(O)C5(CC4(C)C3CCC12C)SCCS5 (stereo not given)")
1
>>> classification("c1ccc(CCNCc2ccc(CNCCc3ccccc3)cc2)cc1")
0
>>> classification("CNc1nnnn1C1OC(CO)C(O)C1O (stereo not given)")
0
>>> classification("O=C(O)CNC(=O)CNC(=O)c1ccc2ccccc2n1")
1
>>> classification("Cc1cn(C)c2c1-c1c(cnn1-c1ccccc1)CC2")
0
>>> classification("COC1OCC2OC3(CCCCC3)OC2C1SCc1ccccc1 (stereo not given)")
0
>>> classification("Nc1nc(C(=O)O)c(N=Nc2ccccc2)c(=O)[nH]1")
1
>>> classification("CCOC(=O)/C(C#N)=C/C=C1C=CN(C)C=C1")
0
>>> classification("CCC(c1ccc(OC)cc1)C1NC(=S)NC1=O (stereo not given)")
0
>>> classification("Cc1cccc2c1c1ccc3c(c1n2C)C(=O)C=CC3=O")
1
>>> classification("FC(F)(F)C(F)(F)C(F)(F)c1n[nH]c(C(F)(F)C(F)(F)C(F)(F)F)n1")
0
>>> classification("NC(=S)n1nc(-c2ccccc2)c(N=Nc2ccccc2[N+](=O)[O-])c1-c1ccccc1")
0
>>> classification("O=[S@@]1Nc2cc3ccccc3cc2S1")
1

====

assay info: NCI Yeast Anticancer Drug Screen. Data for the cln2 rad14 strain (AID 165);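 further: 0% = growth equal to vehicle treated cultures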
condition description: S. cerevisiae cln2 rad14 strain, at 50.0 µM, hits give high values
The panel holds about 79,000 compounds, 15% with a hit somewhere; the sample as a whole holds those more often.
Decision: growth inhibition compared against -20%; not below it gives 1, below it gives -1.

>>> classification("COC(=O)c1cc(C(C)O)nc2ccccc12 (configuration not stated)")
1
>>> classification("COC1(c2ccccc2)N=C(c2ccc([N+](=O)[O-])cc2)OC1(C)C (configuration not stated)")
1
>>> classification("Cc1nc2c(ccc3cc4ccccc4cc32)cc1N(CCO)CCO")
1
>>> classification("COc1ccc(C(CC(=O)O)c2ccc(OC)c(OC)c2)c(OC)c1 (configuration not stated)")
-1
>>> classification("Cc1ccc(NC2C=C(c3ccccc3)Oc3ccccc32)c(C)c1 (configuration not stated)")
1
>>> classification("CCN(CC)C(=O)Oc1cc(C)c([N+](C)(C)C)cc1C(C)C")
1
>>> classification("CCN(CC)c1nc2c(c(=O)n(C)c(=O)n2C)n1CCCNCC(O)c1ccc(O)c(O)c1 (configuration not stated)")
-1
>>> classification("COc1ccc2c(c1)[n+]([O-])c(/C(C)=N/NC(=O)c1ccccc1O)c(C)[n+]2[O-]")
-1
>>> classification("CC1=CC(=O)CCC1c1ccccc1 (configuration not stated)")
1
>>> classification("CSCCC(NC(=O)OC(C)(C)C)C(=O)NCCNc1ccc(NCCNC(=O)C(CCSC)NC(=O)OC(C)(C)C)c2c1C(=O)c1ccccc1C2=O (configuration not stated)")
1
>>> classification("Nc1nc(-c2cc(-c3ccco3)nc(N)n2)cc(-c2ccco2)n1")
1
>>> classification("CC[N+](C)(CC)CCN1C(=O)CC[C@@]2(C)C1=CC[C@@H]1[C@@H]2CC[C@@]2(C)[C@H]1CC[C@]2(C)O")
1
>>> classification("Nc1ccc2cccc(O)c2c1")
1
>>> classification("CC(=O)C=NCC(=O)O")
-1
>>> classification("O=Cc1ccccc1[N+](=O)[O-]")
1
>>> classification("CCCCC(CCc1ccccc1)C(=O)NCC (configuration not stated)")
1
